tested_system: human sodium channels Nav 1.7 (Homo sapiens (Human))
Sequence (Q15858 whole entry): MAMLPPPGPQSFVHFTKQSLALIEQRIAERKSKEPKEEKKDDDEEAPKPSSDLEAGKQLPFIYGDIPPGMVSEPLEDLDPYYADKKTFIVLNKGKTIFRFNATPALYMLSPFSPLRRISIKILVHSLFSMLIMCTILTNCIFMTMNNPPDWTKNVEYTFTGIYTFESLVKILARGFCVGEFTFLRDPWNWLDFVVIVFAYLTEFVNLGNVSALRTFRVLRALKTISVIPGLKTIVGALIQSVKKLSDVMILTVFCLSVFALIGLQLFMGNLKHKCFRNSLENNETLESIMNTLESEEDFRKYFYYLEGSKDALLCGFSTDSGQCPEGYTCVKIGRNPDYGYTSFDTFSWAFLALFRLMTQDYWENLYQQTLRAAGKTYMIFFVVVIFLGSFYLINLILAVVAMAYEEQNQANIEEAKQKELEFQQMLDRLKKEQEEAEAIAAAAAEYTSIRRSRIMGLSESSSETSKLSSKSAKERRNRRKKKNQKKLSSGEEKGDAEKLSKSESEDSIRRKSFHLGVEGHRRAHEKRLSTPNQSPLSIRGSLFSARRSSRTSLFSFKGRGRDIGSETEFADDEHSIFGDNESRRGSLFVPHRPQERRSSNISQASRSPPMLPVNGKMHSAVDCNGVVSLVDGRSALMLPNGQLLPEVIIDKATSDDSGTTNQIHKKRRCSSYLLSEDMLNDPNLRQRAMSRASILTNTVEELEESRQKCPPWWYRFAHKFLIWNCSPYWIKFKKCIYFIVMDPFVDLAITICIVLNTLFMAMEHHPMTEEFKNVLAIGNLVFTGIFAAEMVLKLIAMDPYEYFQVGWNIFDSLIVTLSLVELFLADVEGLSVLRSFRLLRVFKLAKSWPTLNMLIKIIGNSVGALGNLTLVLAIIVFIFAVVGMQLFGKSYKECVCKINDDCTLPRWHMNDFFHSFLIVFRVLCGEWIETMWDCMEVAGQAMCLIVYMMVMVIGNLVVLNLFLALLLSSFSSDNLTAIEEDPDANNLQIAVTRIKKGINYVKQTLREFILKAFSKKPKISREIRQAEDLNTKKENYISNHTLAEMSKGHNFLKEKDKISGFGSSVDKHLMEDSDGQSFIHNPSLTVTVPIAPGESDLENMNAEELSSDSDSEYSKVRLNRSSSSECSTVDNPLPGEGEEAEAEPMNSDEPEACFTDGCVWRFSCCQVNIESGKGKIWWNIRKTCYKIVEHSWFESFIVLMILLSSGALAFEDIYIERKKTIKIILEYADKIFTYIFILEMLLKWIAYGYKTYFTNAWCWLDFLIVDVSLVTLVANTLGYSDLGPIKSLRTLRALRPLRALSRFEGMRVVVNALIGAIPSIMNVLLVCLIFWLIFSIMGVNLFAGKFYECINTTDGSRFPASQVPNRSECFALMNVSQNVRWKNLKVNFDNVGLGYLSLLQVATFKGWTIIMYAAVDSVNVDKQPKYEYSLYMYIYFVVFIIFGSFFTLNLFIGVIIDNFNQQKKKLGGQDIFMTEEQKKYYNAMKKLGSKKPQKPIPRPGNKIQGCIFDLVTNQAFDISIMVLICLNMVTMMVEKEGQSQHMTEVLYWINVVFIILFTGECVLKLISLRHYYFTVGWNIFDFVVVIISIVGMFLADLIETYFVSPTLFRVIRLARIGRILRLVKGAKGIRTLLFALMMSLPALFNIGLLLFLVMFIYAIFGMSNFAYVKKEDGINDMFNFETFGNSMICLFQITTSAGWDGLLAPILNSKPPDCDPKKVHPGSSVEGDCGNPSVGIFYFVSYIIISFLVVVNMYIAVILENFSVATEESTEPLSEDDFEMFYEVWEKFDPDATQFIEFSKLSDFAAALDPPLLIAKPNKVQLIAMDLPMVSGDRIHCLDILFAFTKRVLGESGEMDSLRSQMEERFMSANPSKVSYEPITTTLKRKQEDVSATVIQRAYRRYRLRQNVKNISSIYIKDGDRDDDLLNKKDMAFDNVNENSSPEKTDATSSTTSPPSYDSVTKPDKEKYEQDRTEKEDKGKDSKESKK
run_description: Automated whole-cell voltage-clamp (ScreenPatch 384P), Nav 1.7 sodium current, Protocol 2
Type: cell-based
test_settings: Protocol 2 (holding −100 mV, inactivation step −40 mV 8 s, 0.05 Hz); CHO cells expressing human Nav 1.7; read-out: Nav1.7 IC50
For each record, check the reported IC50: if it is below 600 nM write t, else write f.

Use the examples below as a reference point.
entry_smiles: CCOc1ccc(-c2cc(C(F)(F)F)cc(C(=O)N/N=C/c3cc(OC)cc(OC)c3)n2)cc1
tested_system: human sodium channels Nav 1.7 (Homo sapiens (Human))
category_label: f

entry_smiles: COc1cc(/C=N/NC(=O)c2ccnc(-c3ccc(OC(C)C)cc3)n2)cc(OC)c1
tested_system: human sodium channels Nav 1.7 (Homo sapiens (Human))
category_label: t

entry_smiles: CCCCOc1ccc(-c2cc(C(=O)N/N=C/c3cc(OC)cc(OC)c3)ccn2)cc1
tested_system: human sodium channels Nav 1.7 (Homo sapiens (Human))
category_label: f

Is IC50 strictly under 600 nM for the entry "COc1cc(/C=N/NC(=O)c2nccc(-c3ccc(OC4CCCC4)cc3)n2)cc(OC)c1" ?
t

Item "COc1ccc(-c2noc(C(=O)N/N=C/c3cc(OC)cc(OC)c3)n2)cc1" : IC50 beneath 600 nM, strictly?
f

is_below(IC50, 600 nM) for "COc1ccc(-c2cccc(C(=O)N/N=C/c3cc(OC)cc(OC)c3)n2)cc1" ?
f

====

tested_system: human sodium channels Nav 1.7 (Homo sapiens (Human))
run_description: Automated whole-cell voltage-clamp (ScreenPatch 384P), Nav 1.7 sodium current, Protocol 1
Format: cell-based
test_settings: Protocol 1 (holding −90 mV, 0.1 Hz); CHO cells expressing human Nav 1.7; room temperature; read-out: Nav1.7 IC50
pIC50: −log10 of the molar value.
recorded_endpoint: pIC50

molecule: COc1cc(/C=N/NC(=O)c2cc(-c3ccc(OC(F)(F)F)cc3)ccn2)cc(OC)c1 [Compound 49]
result: < 5.00
//
molecule: COc1cc(/C=N/NC(=O)c2ccc(-c3ccc(Cl)cc3)o2)cc(OC)c1 [Compound 2]
result: < 4.52

// pIC50 value for COc1cc(/C=N/NC(=O)c2cncc(-c3ccc(Cl)cc3)c2)cc(OC)c1 [Compound 16] : 5.38

pIC50 for O=C(N/N=C/c1cccs1)c1cc(-c2ccc(OC(F)(F)F)cc2)ccn1 [Compound 51] is < 5.00

Looking up COc1cc(/C=N/NC(=O)c2cncc(-c3ccc(OC(C)C)cc3)c2)cc(OC)c1 [Compound 19] , I found its pIC50 recorded as 5.24

====

tested_system: human sodium channels Nav 1.8 (Homo sapiens (Human), UniProt Q9Y5Y9)
Sequence (Q9Y5Y9 whole entry): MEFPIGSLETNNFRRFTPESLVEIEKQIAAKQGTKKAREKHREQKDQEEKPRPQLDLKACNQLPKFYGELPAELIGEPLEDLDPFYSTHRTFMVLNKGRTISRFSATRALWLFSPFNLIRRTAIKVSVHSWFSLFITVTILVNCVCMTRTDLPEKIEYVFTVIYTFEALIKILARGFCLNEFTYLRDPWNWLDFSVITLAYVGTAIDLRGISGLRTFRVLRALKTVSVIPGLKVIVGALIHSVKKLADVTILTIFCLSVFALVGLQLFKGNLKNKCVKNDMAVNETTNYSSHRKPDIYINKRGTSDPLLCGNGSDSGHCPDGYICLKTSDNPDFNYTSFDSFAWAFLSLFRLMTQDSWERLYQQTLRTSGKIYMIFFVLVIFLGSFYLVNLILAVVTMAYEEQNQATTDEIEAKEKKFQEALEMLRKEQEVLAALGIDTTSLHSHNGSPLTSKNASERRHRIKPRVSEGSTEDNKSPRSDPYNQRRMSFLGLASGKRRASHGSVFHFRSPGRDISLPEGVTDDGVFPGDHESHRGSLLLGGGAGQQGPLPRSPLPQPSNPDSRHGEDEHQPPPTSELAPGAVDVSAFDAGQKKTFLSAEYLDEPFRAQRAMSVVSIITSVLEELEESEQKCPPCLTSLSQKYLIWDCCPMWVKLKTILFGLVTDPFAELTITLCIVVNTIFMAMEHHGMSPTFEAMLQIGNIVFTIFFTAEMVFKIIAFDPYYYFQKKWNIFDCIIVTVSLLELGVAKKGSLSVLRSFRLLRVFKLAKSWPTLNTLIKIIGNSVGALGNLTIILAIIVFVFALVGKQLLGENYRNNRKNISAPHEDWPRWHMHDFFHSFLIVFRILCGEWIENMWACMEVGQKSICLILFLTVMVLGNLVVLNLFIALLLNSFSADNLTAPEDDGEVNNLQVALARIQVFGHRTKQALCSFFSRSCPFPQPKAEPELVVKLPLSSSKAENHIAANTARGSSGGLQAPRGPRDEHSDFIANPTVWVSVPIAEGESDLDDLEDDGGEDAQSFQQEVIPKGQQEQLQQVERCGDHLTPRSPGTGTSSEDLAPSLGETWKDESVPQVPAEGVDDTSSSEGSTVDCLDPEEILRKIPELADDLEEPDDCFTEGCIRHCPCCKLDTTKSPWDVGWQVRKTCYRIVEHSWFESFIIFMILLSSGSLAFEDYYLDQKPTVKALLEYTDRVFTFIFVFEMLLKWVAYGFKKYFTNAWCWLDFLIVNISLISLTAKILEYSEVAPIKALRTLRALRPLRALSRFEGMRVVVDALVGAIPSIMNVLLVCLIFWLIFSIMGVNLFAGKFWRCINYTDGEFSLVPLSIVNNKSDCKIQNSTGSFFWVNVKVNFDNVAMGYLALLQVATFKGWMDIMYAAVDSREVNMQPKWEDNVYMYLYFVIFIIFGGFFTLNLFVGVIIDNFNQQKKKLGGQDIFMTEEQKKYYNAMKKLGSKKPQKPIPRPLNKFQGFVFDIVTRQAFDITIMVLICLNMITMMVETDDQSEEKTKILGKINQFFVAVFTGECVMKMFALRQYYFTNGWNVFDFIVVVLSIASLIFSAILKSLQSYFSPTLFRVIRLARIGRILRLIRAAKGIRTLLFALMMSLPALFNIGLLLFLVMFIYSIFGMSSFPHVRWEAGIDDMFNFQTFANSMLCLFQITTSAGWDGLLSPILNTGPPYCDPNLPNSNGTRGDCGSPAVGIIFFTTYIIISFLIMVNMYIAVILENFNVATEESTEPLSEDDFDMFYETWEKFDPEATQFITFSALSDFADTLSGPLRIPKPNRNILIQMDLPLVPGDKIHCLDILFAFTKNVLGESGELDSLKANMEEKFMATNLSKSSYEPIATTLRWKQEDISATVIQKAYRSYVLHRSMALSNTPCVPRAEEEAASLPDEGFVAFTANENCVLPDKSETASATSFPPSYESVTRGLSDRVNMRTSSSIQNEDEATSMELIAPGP
run_description: Automated whole-cell voltage-clamp (ScreenPatch 384P), Nav 1.8 sodium current, Protocol 1
Assay type: cell-based
test_settings: Protocol 1 (holding −90 mV, 0.1 Hz); CHO cells expressing human Nav 1.8; room temperature; read-out: Nav1.8 IC50
recorded_endpoint: IC50

These solved cases illustrate the format of a correct answer.
molecule: O=C(N/N=C/c1cccs1)c1cc(-c2ccc(Cl)cc2)ccn1 [Compound 43]
recorded_endpoint: IC50
result: > 10 µM
//
molecule: CCOc1ccc(-c2cc(C(=O)N/N=C/c3cc(OC)cc(OC)c3)ccn2)cc1 [Compound 22]
recorded_endpoint: IC50
result: > 10 µM
//
molecule: CCOc1ccc(-c2cccc(C(=O)N/N=C/c3c(Cl)cccc3Cl)n2)cc1 [Compound 34]
recorded_endpoint: IC50
result: > 10 µM
//
molecule: CCOc1ccc(-c2cccc(C(=O)N/N=C/c3cccnc3N3CCOCC3)n2)cc1 [Compound 37]
recorded_endpoint: IC50
result: > 10 µM
//
molecule: COc1cc(/C=N/NC(=O)c2ccc(-c3ccc(Cl)cc3)o2)cc(OC)c1 [Compound 2]
recorded_endpoint: IC50
result: > 30 µM

Reported IC50 ( COc1cc(/C=N/NC(=O)c2cc(-c3ccc(OC(C)C)cc3)ccn2)cc(OC)c1 [Compound 46] ) = > 10 µM

Summary for this molecule, COc1cc(/C=N/NC(=O)c2cncc(-c3ccc(OC(C)C)cc3)c2)cc(OC)c1 [Compound 19] : IC50 is 5.9 µM

The reported value for CCCCOc1ccc(-c2cncc(C(=O)N/N=C/c3cc(OC)cc(OC)c3)c2)cc1 [Compound 27] in terms of IC50 is > 10 µM

IC50 reported for this molecule CCOc1ccc(-c2cccc(C(=O)N(C)/N=C/c3cc(OC)cc(OC)c3)n2)cc1 [Compound 79] : > 10 µM

Input COc1cc(/C=N/NC(=O)c2cc(-c3ccc(OC(F)(F)F)cc3)ccn2)cc(OC)c1 [Compound 49] . Output IC50: > 10 µM
